Source: paper PMC6019379

- Assayed target: T1, ADAAD F507W (Bos taurus (bovine), UniProt Q9TTA5 221-940, F727W)
- T1 sequence: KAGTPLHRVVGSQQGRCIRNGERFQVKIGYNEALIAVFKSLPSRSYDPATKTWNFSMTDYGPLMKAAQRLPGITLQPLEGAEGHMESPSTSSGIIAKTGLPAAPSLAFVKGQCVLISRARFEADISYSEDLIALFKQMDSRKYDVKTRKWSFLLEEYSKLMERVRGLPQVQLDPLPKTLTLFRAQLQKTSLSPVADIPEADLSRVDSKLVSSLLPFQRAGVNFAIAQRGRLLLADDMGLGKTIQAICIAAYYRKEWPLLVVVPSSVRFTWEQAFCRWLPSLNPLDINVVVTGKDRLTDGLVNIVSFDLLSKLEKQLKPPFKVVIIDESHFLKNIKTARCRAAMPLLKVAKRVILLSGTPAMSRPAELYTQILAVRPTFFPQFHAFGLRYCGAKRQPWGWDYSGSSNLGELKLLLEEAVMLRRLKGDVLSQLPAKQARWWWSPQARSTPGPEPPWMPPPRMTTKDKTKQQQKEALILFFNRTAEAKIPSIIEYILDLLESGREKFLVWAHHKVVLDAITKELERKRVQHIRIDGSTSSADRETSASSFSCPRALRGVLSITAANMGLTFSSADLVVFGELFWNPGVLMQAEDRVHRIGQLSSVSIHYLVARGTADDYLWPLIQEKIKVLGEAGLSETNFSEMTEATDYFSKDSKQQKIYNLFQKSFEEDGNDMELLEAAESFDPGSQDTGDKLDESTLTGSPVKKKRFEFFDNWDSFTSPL
- Test name: intrinsic tryptophan fluorescence titration; no ATP; Fluorescence titration (ex 295 nm, em 340 nm), one-site saturation fit; buffer, salt, pH and temperature not given in the material. Wild-type ADAAD Kd values are cited from ref 24 and not listed
- Test conditions: protein: recombinant; tags: His (Ni-NTA, pET-14b); hairpin
Recorded endpoint: Kd (µM)
Form entry: value (µM) — number only.

Note Kd for the binder shown: GCGCAATTGCGCTCGACGATTTTTTAGCGCAATTGCGC (structured_DNA) [slDNA (stem-loop DNA)]
0.0448
